- test name: chemical genetic growth profiling, strain panel (AID 1159580);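 also: tested at 20 µM; growth read once vehicle control cultures reached saturation at 30 °C; 1 = growth at the plate median or of vehicle wells; lower values mean less growth of the strain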
- stated conditions: S. cerevisiae deletion strains, growth OD, locus YGL078C, strain dbp3, hits give low values
Screen size: about 5,500 compounds; about 2,000 (36%) were called active. Another 18% or so got no clear call; they are omitted. The list shows a part of the results.
measure: normalized growth
Give only the figure.

Previously resolved entries follow.
{"columns": ["compound", "measure", "measured result"],
 "data": [
  ["NCCC(=O)N[C@@H](Cc1cnc[nH]1)C(=O)O", "normalized growth", 0.999],
  ["CC(=O)OC1CC[C@@]2(C)C(CC[C@]3(C)C2CCC2C4CC(C)(C)CCC4(C(=O)O)CC[C@]23C)C1(C)C (some centres not stated)", "normalized growth", 0.974],
  ["C[C@@H]1OC(O[C@H]2[C@H](O)[C@@H](O)[C@H](OC[C@H]3O[C@@H](OC(=O)[C@]45CCC(C)(C)CC4C4=CCC6[C@@]7(C)CC[C@H](OC8OC[C@H](O)[C@H](O)[C@H]8OC8O[C@@H](C)[C@H](O)[C@@H](O)[C@H]8O)[C@@](C)(CO)C7CC[C@@]6(C)[C@]4(C)CC5)[C@H](O)[C@@H](O)[C@@H]3O)O[C@@H]2CO)[C@H](O)[C@H](O)[C@H]1O (some centres not stated)", "normalized growth", 0.985]
]}

Give normalized growth for the following compound: CC(C)(Sc1cc(C(C)(C)C)c(O)c(C(C)(C)C)c1)Sc1cc(C(C)(C)C)c(O)c(C(C)(C)C)c1
1.03

Give normalized growth for the following compound: NNc1nncc2ccccc12
0.999

Give normalized growth for the following compound: Nc1c2ccccc2nc2ccccc12 (tested in a mixture with another compound)
0.778

Give normalized growth for the following compound: Cc1cc(C(C)(C)C)c(O)c(C(C)(C)C)c1
0.962

Ref: PubChem BioAssay AID1159580
